Where do these numbers come from? They come from patent US20060062758A1.

test: Permeation kinetics across the in vitro epithelial tissue model; conditions: human, pH 5, Papp, in the presence of 100 nM PN159 (as printed in text)
readoutType: Papp at 120 min, 40 mg/ml (×10⁻⁶ cm/s)
Express the result in ×10⁻⁶ cm/s but write the number alone.

(Q) Recorded Papp at 120 min, 40 mg/ml of COc1ccc2c3c1O[C@H]1C[C@@H](O)C=C[C@@]31CCN(C)C2 [Galantamine, galantamine, reference compound] , please.
(A) 7.2

====

Experiment: Permeation kinetics across the in vitro epithelial tissue model
Conditions: human, pH 5, Papp, in the presence of 25 nM PN159 (as printed in text)
Protocol: The EpiAirway™ system was developed by MatTek Corp (Ashland, Mass.) as a model of the pseudostratified epithelium lining the respiratory tract. […] The instant study was designed to evaluate the effect of PN159 itself or in combination with additional permeation enhancers on PTH permeation. The PN159 concentrations evaluated are 25, 50, and 100 μM. […] The effect of PN159 on permeation of MC-4RA was evaluated in this study.
readoutType: Papp at 120 min, 40 mg/ml (nm/s)
Express the result in nm/s but write the number alone.

(Q) Recorded Papp at 120 min, 40 mg/ml of COc1ccc2c3c1O[C@H]1C[C@@H](O)C=C[C@@]31CCN(C)C2 [Galantamine, galantamine, reference compound] , please.
(A) 51
